system.under.test: T1, recombinant DLL3 ectodomain (rhDLL3-Fc) (human, UniProt Q9NYJ7 27-492, biotinylated (NHS-LC-LC-biotin) in the BLI and SPR assays)
T1 construct: also called rDLL3-Fc; recombinant human DLL3 (rDLL3); not shown: Fc part
T1 sequence: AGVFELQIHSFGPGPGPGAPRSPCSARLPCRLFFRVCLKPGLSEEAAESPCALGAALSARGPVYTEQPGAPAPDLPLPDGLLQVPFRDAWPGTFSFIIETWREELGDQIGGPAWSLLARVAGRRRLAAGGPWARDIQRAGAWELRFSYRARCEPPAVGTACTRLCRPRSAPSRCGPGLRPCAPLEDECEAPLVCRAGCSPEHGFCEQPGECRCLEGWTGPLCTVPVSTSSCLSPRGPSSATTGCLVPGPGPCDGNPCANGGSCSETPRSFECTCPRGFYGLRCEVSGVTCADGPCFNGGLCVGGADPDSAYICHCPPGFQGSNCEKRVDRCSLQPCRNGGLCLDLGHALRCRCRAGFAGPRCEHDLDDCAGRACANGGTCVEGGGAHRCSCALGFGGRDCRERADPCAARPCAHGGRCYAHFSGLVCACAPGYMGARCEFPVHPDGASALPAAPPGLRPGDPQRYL
method.description: BLI (Octet), biotinylated rhDLL3-Fc on streptavidin sensors
Bridge positions count the residues as written; N and C are the ends. Ends that are not written are not given here.
measured.metric: log10 Kd (log10 of the value in nM)

binder	log10 Kd
AETVEFYGCWGNYNDYTCSW-NH2 (disulfide 9-18 (inferred)) [PepSP1177]	2.37
WDCWGNTDDWTCTW-NH2 (disulfide 3-12 (inferred), PepSP1161 without AETVEF) [PepSP1269]	2.26
AETVEFYGCSVNADGWTCSW-NH2 (disulfide 9-18 (inferred)) [PepSP1170]	2.22
AETVEFWSCKWWGGAADEYTYSCGW-NH2 (disulfide 9-23 (inferred)) [PepSP1182]	1.88
AETVEFWDCWGNTDDWTCTW-NH2 (disulfide 9-18 (inferred)) [PepSP1161]	1.63
AETVEFYGCKWDWKGWTCAW-NH2 (disulfide 9-18 (inferred)) [PepSP1168]	2.75
AETVEFYGCSMDWRGVTCAW-NH2 (disulfide 9-18 (inferred)) [PepSP1158]	2.81
AETVEFWSCHYSYWTVSCGT-NH2 (disulfide 9-18 (inferred)) [PepSP1157]	2.09
AETVEFYGCQYYGWDYTCAW-NH2 (disulfide 9-18 (inferred)) [PepSP1176]	2.32
AETVEFYGCYGDRNDYTCTW-NH2 (disulfide 9-18 (inferred)) [PepSP1178]	2.17
AETVEYWRCDWYEETVACGT-NH2 (disulfide 9-18 (inferred)) [PepSP1155]	2.19
AETVEFYGCRGGDGEWTCVW-NH2 (disulfide 9-18 (inferred)) [PepSP1165]	2.42
